Measured EC50, listed per entry.
target: human somatostatin receptor subtype 2 (Homo sapiens, UniProt P30874); construct: expressed in transfected cells; experiment: Functional assay for SSTR2 agonists (HTRF cAMP); assay type: cell-based; settings: CHO-K1 cells stably expressing human SST2; NKH477-stimulated cAMP; 20 min at 37 C; read-out: hSST2 cAMP Avg EC50
Sequence (P30874 whole entry): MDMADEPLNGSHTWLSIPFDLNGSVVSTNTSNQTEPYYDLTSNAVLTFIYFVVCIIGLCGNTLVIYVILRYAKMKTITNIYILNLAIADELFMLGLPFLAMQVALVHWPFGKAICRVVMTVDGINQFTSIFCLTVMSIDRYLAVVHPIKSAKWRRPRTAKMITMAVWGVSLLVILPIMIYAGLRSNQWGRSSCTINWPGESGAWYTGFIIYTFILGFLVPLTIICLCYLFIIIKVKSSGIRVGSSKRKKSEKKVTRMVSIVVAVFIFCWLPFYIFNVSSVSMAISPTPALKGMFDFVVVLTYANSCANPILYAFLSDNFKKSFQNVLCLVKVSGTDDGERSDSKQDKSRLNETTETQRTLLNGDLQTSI
Report as a plain number; the unit nM is understood.

[
  {
    "structure-smiles": "CC[C@H](C)[C@@H]([C@@H](CC(=O)N1CCC[C@H]1[C@H](OC)[C@@H](C)C(=O)N[C@H](C)[C@@H](O)c1ccccc1)OC)N(C)C(=O)[C@@H](NC(=O)[C@H](C(C)C)N(C)C(=O)OCc1ccc(NC(=O)[C@H](CCCNC(N)=O)NC(=O)[C@@H](NC(=O)[C@@H](CS(=O)(=O)O)NC(=O)CCOCCC(=O)NCCNc2ncc(-c3cc(C)cc(F)c3)c(N3CCC(N)CC3)c2-c2nc3ccc(Cl)cc3[nH]2)C(C)C)cc1C(=O)N1CC(N)C1)C(C)C",
    "units-text": "nM",
    "recorded-number": 0.075
  }
]

Given the entry CC[C@H](C)[C@@H]([C@@H](CC(=O)N1CCC[C@H]1[C@H](OC)[C@@H](C)C(=O)N[C@H](C)[C@@H](O)c1ccccc1)OC)N(C)C(=O)[C@@H](NC(=O)[C@H](C(C)C)N(C)C(=O)OCc1ccc(NC(=O)[C@H](CCCNC(N)=O)NC(=O)[C@@H](NC(=O)C[C@@H](N)C(=O)NCCOCCC(=O)NCCNc2ncc(-c3cc(C)cc(F)c3)c(N3CCC(NC)CC3)c2-c2nc3cc(F)cc(OC)c3[nH]2)C(C)C)c(O[C@@H]2O[C@H](C(=O)O)[C@@H](O)[C@H](O)[C@H]2O)c1)C(C)C , what EC50 was observed with human somatostatin receptor subtype 2 (Homo sapiens, UniProt P30874)?
0.2

Given the entry CC[C@H](C)[C@@H]([C@@H](CC(=O)N1CCC[C@H]1[C@H](OC)[C@@H](C)C(=O)N[C@H](C)[C@@H](O)c1ccccc1)OC)N(C)C(=O)[C@@H](NC(=O)[C@H](C(C)C)N(C)C(=O)OCc1ccc(NC(=O)[C@H](CCCNC(N)=O)NC(=O)[C@@H](NC(=O)CCOCCC(=O)NCCNc2ncc(-c3cc(C)cc(F)c3)c(N3CCC(N)CC3)c2-c2nc3cc(Cl)ccc3[nH]2)C(C)C)c(O[C@@H]2O[C@H](C(=O)NCC(=O)O)[C@@H](O)[C@H](O)[C@H]2O)c1)C(C)C , what EC50 was observed with human somatostatin receptor subtype 2 (Homo sapiens, UniProt P30874)?
0.085

Given the entry CC[C@H](C)[C@@H]([C@@H](CC(=O)N1CCC[C@H]1[C@H](OC)[C@@H](C)C(=O)N[C@H](C)[C@@H](O)c1ccccc1)OC)N(C)C(=O)[C@@H](NC(=O)[C@H](C(C)C)N(C)C(=O)OCc1ccc(NC(=O)[C@H](CCCNC(N)=O)NC(=O)[C@@H](NC(=O)CCOCCC(=O)NCCNc2ncc(-c3cc(C)cc(F)c3)c(N3CCC(N)CC3)c2-c2nc3ccc(Cl)cc3[nH]2)C(C)C)cc1C(=O)NCC(=O)O)C(C)C , what EC50 was observed with human somatostatin receptor subtype 2 (Homo sapiens, UniProt P30874)?
0.17

Given the entry CC[C@H](C)[C@@H]([C@@H](CC(=O)N1CCC[C@H]1[C@H](OC)[C@@H](C)C(=O)N[C@H](C)[C@@H](O)c1ccccc1)OC)N(C)C(=O)[C@@H](NC(=O)[C@H](C(C)C)N(C)C(=O)OCc1ccc(NC(=O)[C@H](CCCNC(N)=O)NC(=O)[C@@H](NC(=O)CCOCCC(=O)N(C)CC(=O)NCCNc2ncc(-c3cc(C)cc(F)c3)c(N3CCC(N)CC3)c2-c2nc3ccc(Cl)cc3[nH]2)C(C)C)c(OCC(N)=O)c1)C(C)C , what EC50 was observed with human somatostatin receptor subtype 2 (Homo sapiens, UniProt P30874)?
0.096
